Test system: Amaranthus retoflexus (AMARE)
Test: Pre-emergence biological efficacy, glasshouse pot test
Format: in vivo
Conditions: Amaranthus retroflexus, 312 h; pre-emergence, 1,000 g/ha, evaluated after 13 days (100=total damage; 0=no damage); read-out: Percentage damage AMARE
measured quantity: pest or weed control at 1000 g/ha (%)
Quick reminder: number only, in %, skip the unit.

In the examples that follow, each entry is paired with its recorded pest or weed control at 1000 g/ha.
COC(=O)c1nc(C2CC2)nc(NC(C)Cc2c[nH]c3ccccc23)c1Cl (stereo not drawn) :: 30
O=C(O)c1nc(C2CC2)nc(NCc2ccco2)c1Cl :: 100
COC(=O)c1nc(C2CC2)nc(NCC(F)c2cccc(C(F)(F)F)c2)c1Cl (stereo not drawn) :: 30

Task: Report the value of pest or weed control at 1000 g/ha obtained on Amaranthus retoflexus (AMARE) for COC(=O)c1nc(C2CC2)nc(NC(c2ccccc2)c2ccccc2)c1Cl .
Output: 0

Task: Lab note: Amaranthus retoflexus (AMARE) assay, enter pest or weed control at 1000 g/ha for COC(=O)c1nc(C2CC2)nc(N[C@H](C)c2ccc3ccccc3c2)c1Cl [4-185 (R)] here
Output: 0

Task: Please indicate recorded pest or weed control at 1000 g/ha of COC(=O)c1nc(C2CC2)nc(NCc2cccc(Cl)c2)c1Cl measured with Amaranthus retoflexus (AMARE).
Output: 100

----------
Property: pest or weed control at 1000 g/ha; scope: individual molecules
Test system: Setaria faberi (SETFA)
Test: Post-emergence biological efficacy, glasshouse pot test
Format: in vivo
Settings: 312 h, Rate 1,000 g/ha, post-emergence spray, evaluated after 13 days (100=total damage to plant; 0=no damage to plant), read-out: Percentage damage caused to weed species, post-emergence, SETFA
Description: Seeds of Alopecurus myosuroides (ALOMY), Setaria faberi (SETFA), Echinochloa crus-galli (ECHCG), Solanum nigrum (SOLNI), Amaranthus retoflexus (AMARE) and Ipomea hederaceae (IPOHE) were sown in standard soil in pots. […] The test plants were then grown on under controlled conditions in a glasshouse (at 24/16° C., day/night; 14 hours light; 65% humidity) and watered twice daily. After 13 days the test was evaluated (100=total damage to plant; 0=no damage to plant).
# unit: % | format: bare number

COC(=O)c1nc(-c2ccc(Cl)c([N+](=O)[O-])c2)nc(NCc2ccco2)c1Cl [Compound 219-48] :: 20
COC(=O)c1nc(-c2ccc(Cl)c(C)c2)nc(NCc2ccco2)c1Cl [Compound 216-48] :: 10
COC(=O)c1nc(C2CC2)nc(N(C)Cc2ccc(C(F)(F)F)cc2)c1Cl [Compound 5-77] :: 50
O=C(NCc1ccccc1)c1nc(C2CC2)nc(NCc2ccccc2)c1Cl [Compound 265-1] :: 0
COC(=O)c1nc(C2CC2)nc(N(Cc2ccccc2)CC(O)c2ccccc2)c1Cl (centres unmarked) [Compound 155-257] :: 50
COC(=O)c1nc(C2CC2)nc(N(C)[C@@H](Cc2ccccc2)C(=O)OC)c1Cl [5-283 (S)] :: 40
COC(=O)c1nc(C2CC2)nc(N(C)CCc2ccccc2)c1Cl [Compound 5-221] :: 40
COC(=O)c1nc(C2CC2)nc(N(C)Cc2ccc(F)cc2)c1Cl [Compound 5-66] :: 80
COC(=O)c1nc(-c2ccc(OC)cc2F)nc(NCc2ccco2)c1Cl [Compound 258-48] :: 40
CCN(Cc1ccccc1F)c1nc(C2CC2)nc(C(=O)OC)c1Cl [Compound 6-64] :: 90

Task: Assign pest or weed control at 1000 g/ha to the following record: C=CCCN(Cc1ccccc1)c1nc(C2CC2)nc(C(=O)OC)c1Cl [Compound 154-60]
Output: 30

Task: Recall and state the measured pest or weed control at 1000 g/ha for COC(=O)c1nc(C2CC2)nc(N(C)Cc2cccc(F)c2)c1Cl [Compound 5-65] .
Output: 80

Task: Give a short answer stating reported pest or weed control at 1000 g/ha for COC(=O)c1nc(-c2ccc(Cl)c(F)c2)nc(NCc2ccco2)c1Cl [Compound 222-48] .
Output: 40

Task: Give recorded pest or weed control at 1000 g/ha. COC(=O)c1nc(-c2ccc(Cl)c(OC)c2)nc(NCc2ccco2)c1Cl [Compound 229-48]
Output: 60

Task: Complete the entry with pest or weed control at 1000 g/ha for COC(=O)c1nc(Cl)nc(NCc2ccccc2)c1Cl [Compound 207-35]
Output: 30

Task: Provide pest or weed control at 1000 g/ha value for the following molecule: COCCN(C/C=C/c1ccco1)c1nc(C2CC2)nc(C(=O)OC)c1Cl [Compound 160-256]
Output: 40

Task: Give pest or weed control at 1000 g/ha for COC(=O)c1nc(C2CC2)nc(N(C)Cc2cccc(C(F)(F)F)c2)c1Cl [Compound 5-76]
Output: 80

----------
System: Echinochloa crus-galli (ECHCG)
Test: Pre-emergence biological efficacy, glasshouse pot test
Assay type: in vivo
Conditions: 312 h, pre-emergence, rate 1,000 g/ha, evaluated after 13 days (100=total damage to plant; 0=no damage), read-out: Percentage damage caused to weed species, ECHCG
measured quantity: pest or weed control at 1000 g/ha (%)
Form entry: value (%) — number only.

COC(=O)c1nc(-c2ccc(OC)c(OC)c2)nc(NCc2ccco2)c1Cl [Compound 260-48] :: 0
COC(=O)c1nc(-c2ccc(Cl)c(OC)c2F)nc(NCc2ccc(C)o2)c1Cl [Compound 112-135] :: 90
CC(C)COC(=O)c1nc(C2CC2)nc(NCc2ccco2)c1Cl [Compound 199-125] :: 50
CCOC(=O)c1nc(C2CC2)nc(NCc2ccccc2)c1Cl [Compound 7-60] :: 50

Next up:
Task: Give Echinochloa crus-galli (ECHCG) pest or weed control at 1000 g/ha for the following compound: COC(=O)c1nc(C2CC2)nc(N(C)Cc2ccc(Cl)cc2)c1Cl [Compound 5-63]
Output: 0

----------
Tested on: Alopecurus myosuroides (ALOMY)
Experiment: Post-emergence biological efficacy, glasshouse pot test
Assay type: in vivo
Conditions: 312 h, post-emergence, 1,000 g/ha, evaluated after 13 days (100=total damage; 0=no damage), read-out: Percentage damage caused to weed species, ALOMY
Procedure: Seeds of Alopecurus myosuroides (ALOMY), Setaria faberi (SETFA), Echinochloa crus-galli (ECHCG), Solanum nigrum (SOLNI), Amaranthus retoflexus (AMARE) and Ipomea hederaceae (IPOHE) were sown in standard soil in pots. […] The test plants were then grown on under controlled conditions in a glasshouse (at 24/16° C., day/night; 14 hours light; 65% humidity) and watered twice daily. After 13 days the test was evaluated (100=total damage to plant; 0=no damage to plant).
measured quantity: pest or weed control at 1000 g/ha
Quick note: number first, unit second.

COC(=O)c1nc(C2CC2)nc(NCCCCc2ccccc2)c1Cl :: 10%
COC(=O)c1nc(C2CC2)nc(NCc2cccc([N+](=O)[O-])c2)c1Cl :: 50%
COC(=O)c1nc(C2CC2)nc(NCC2(O)CCCCC2)c1Cl :: 10%
COC(=O)c1nc(C2CC2)nc(N[C@@H](C)c2ccc(OC)cc2)c1Cl [4-181 (S)] :: 30%

Please examine the following record next.
Task: Please look at COC(=O)c1nc(C2CC2)nc(NCc2ncco2)c1Cl and tell me its recorded pest or weed control at 1000 g/ha on Alopecurus myosuroides (ALOMY).
Output: 20%

----------
Tested on: Setaria faberi (SETFA)
Assay: Post-emergence biological efficacy, glasshouse pot test
Type: in vivo
Details: 312 h, Rate 1,000 g/ha, post-emergence spray, evaluated after 13 days (100=total damage to plant; 0=no damage to plant), read-out: Percentage damage caused to weed species, post-emergence, SETFA
The entries below are paired with their reported pest or weed control at 1000 g/ha.
State just the number; it will be interpreted in %.

Use the examples below as a reference point.
COC(=O)c1nc(C2CC2)nc(N(C)Cc2ccco2)c1Cl [Compound 5-125] :: 80
CCN(c1nc(C2CC2)nc(C(=O)OC)c1Cl)C1CCCCC1 [Compound 6-35] :: 40
COC(=O)c1nc(-c2ccc(Cl)cc2C(F)(F)F)nc(NCc2ccco2)c1Cl [Compound 220-48] :: 0
CCN(Cc1c(F)cccc1Cl)c1nc(C2CC2)nc(C(=O)OC)c1Cl [Compound 6-102] :: 80
O=C(NCc1cccs1)c1nc(C2CC2)nc(NCc2cccs2)c1Cl [Compound 265-4] :: 20
COC(=O)c1nc(-c2ccc(OC)cc2)nc(NCc2ccco2)c1Cl [Compound 250-48] :: 50
COC(=O)c1nc(-c2ccc(OC)cc2OC)nc(NCc2ccco2)c1Cl [Compound 252-48] :: 0
COC(=O)c1nc(-c2ccc(Cl)s2)nc(NC2CC2)c1Cl [Compound 262-30] :: 10

Task: Quote pest or weed control at 1000 g/ha reported for COC(=O)c1nc(C2CC2)nc(N(C)Cc2ccccc2F)c1Cl [Compound 5-64] please.
Output: 90

Task: Give recorded pest or weed control at 1000 g/ha. COC(=O)c1nc(C2CC2)nc(N(CCC#N)Cc2ccccc2)c1Cl [Compound 161-60]
Output: 50

Task: Fill in reported pest or weed control at 1000 g/ha for this entry: CCOc1ccc(CN(C)c2nc(C3CC3)nc(C(=O)OC)c2Cl)cc1OCC [Compound 5-114]
Output: 40

Task: For the compound COC(=O)c1nc(-c2ccc(Cl)c(C(F)(F)F)c2F)nc(NCc2ccco2)c1Cl [Compound 230-48] , give its measured pest or weed control at 1000 g/ha value.
Output: 70

Reference for the values: patent US20110086759A1
